- System: CEM cells HIV-1 protection, formazan growth assay
- Method: NCI AIDS Antiviral Assay;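 active means compounds giving half or more protection of infected cells from virus-caused growth loss, again on retest; inactive means the rest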
- Protocol: The ability of compounds to protect human CEM cells from HIV-1 infection is measured as a screen for new compounds capable of inhibiting the HIV virus. Five concentrations of drug were tested on uninfected and infected cells and cell growth was measured using a soluble formazan assay. […] Compounds that provided at least 50% protection were retested. Compounds that provided at least 50% protection on retest were listed as moderately active. […]
Where a SMILES comes first, the peptide text is derived from it. The star is where a group is joined. Boc = CC(C)(C)OC(=O)*; OBn = c1ccc(CO*)cc1
Give your call using only these classes: active, inactive

Compound	Group label
Cc1cnc2c(c1)C(=O)N(c1ccc(Br)cc1)S2(=O)=O	inactive

Req: What did this assay record as the result for COc1ccc(C(=O)/C=C/c2ccncc2)cc1OC ?
Resp: inactive

Req: What did this assay record as the result for C1CCN2CC3CONC3C2C1 (stereo unspecified) ?
Resp: inactive

Req: What did this assay record as the result for Cc1ncc2c(n1)NC(c1ccc([N+](=O)[O-])cc1)NC2 (stereo unspecified) ?
Resp: inactive

Req: What did this assay record as the result for COc1ccc(OC)c(N=Nc2c(O)c3ccccc3[nH]c2=O)c1 ?
Resp: active

Req: What did this assay record as the result for CC(C)C(NC(=O)OC(C)(C)C)C(=O)N1CCCC1C(=O)OCc1ccccc1 (stereo not drawn) (Boc-Val-Pro-OBn; configuration not given here) ?
Resp: inactive

Req: What did this assay record as the result for CCOC(=O)c1nc2ccccc2nc1Oc1ccc(C(=O)OC)cc1 ?
Resp: inactive

Req: What did this assay record as the result for Cc1cc(NS(=O)(=O)c2ccc(NC(=O)c3cccc4c(Nc5ccc(S(=O)(=O)Nc6cc(C)on6)cc5)c5ccccc5nc34)cc2)no1 ?
Resp: inactive

Req: What did this assay record as the result for Brc1ccc2c(-c3csc(-c4c[nH]c5cc(Br)ccc45)n3)c[nH]c2c1 ?
Resp: inactive

Req: What did this assay record as the result for Cn1c(=O)c2c(nc(NCCCCl)n2CC(=O)O)n(C)c1=O ?
Resp: inactive

Req: What did this assay record as the result for CC(C)CCCC(C)[C@H]1CCC2C3CCC4C[C@@H](CCC=C(c5cc(Cl)c(OCc6ccc([N+](=O)[O-])cc6)c(C(=O)O)c5)c5cc(Cl)c(OCc6ccc([N+](=O)[O-])cc6)c(C(=O)O)c5)CC[C@]4(C)C3CC[C@@]21C (stereo partly specified) ?
Resp: active

----------
- Tested on: CEM cells HIV-1 protection, formazan growth assay
- Method: NCI AIDS Antiviral Assay;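 active = compounds giving half or more protection of infected cells from virus-caused growth loss, again on retest; inactive = the rest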
Give your call using only these classes: TRUE for active, FALSE for inactive

Record excerpt, results attached:
Compound	Group label
CC(=O)NNC(=S)N/C=C(/C(=O)c1ccccc1)c1ccccc1	TRUE
CCOC(=O)c1nc2cc(C(F)(F)F)ccc2nc1Oc1ccc(C#N)cc1	FALSE
CC(NC(=O)C(OC(=O)C(C)NC(=O)OC(C)(C)C)C(C)C)C(=O)OC(C(=O)O)C(C)C (stereo not drawn)	FALSE
CCOC(=O)N1N=C(c2ccccc2)OC2(N3CCCC3)CCC(C(C)(C)C)CC12 (stereo not drawn)	TRUE
O=S1(=O)OC(c2cc(Cl)c(O)c(Br)c2)(c2cc(Cl)c(O)c(Br)c2)c2ccccc21	TRUE

Req: What did this assay record as the result for CCC1(N)C(=O)OCc2c1cc1n(c2=O)Cc2cc3ccccc3nc2-1 (stereo not drawn) ?
Resp: FALSE

Req: What did this assay record as the result for NNC(=O)CC(=O)Nc1ccc(S(=O)(=O)c2ccc(NC(=O)CC(=O)NN)cc2)cc1 ?
Resp: FALSE

Req: What did this assay record as the result for CCCS(=N)(=O)CCC(N)C(=O)O (stereo not drawn) ?
Resp: FALSE
